# assayed.system: T1, huCD33-G69 stably expressed on Jurkat cells (human, UniProt P20138 18-364)
# T1 construct: whole, on cells; >200,000 receptors per cell; also called CD33 Mutant; CD33 R69G
# T1 sequence (P20138 18-364 R69G): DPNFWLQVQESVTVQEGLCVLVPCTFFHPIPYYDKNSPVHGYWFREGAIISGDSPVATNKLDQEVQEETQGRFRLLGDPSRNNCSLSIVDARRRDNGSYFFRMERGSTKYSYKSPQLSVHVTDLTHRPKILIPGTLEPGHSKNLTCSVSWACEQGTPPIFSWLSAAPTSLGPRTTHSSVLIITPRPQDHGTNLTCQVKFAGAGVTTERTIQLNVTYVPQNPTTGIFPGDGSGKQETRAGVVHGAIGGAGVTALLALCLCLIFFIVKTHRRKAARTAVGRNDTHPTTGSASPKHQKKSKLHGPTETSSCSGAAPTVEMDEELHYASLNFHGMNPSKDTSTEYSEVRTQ
# assay.details: FACS on cells;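 further: fixed Jurkat cells bearing either CD33 variant, barcoded by dye, exposed to myc-tagged scFv periplasmic extracts, detected with anti-myc PE antibody and read by flow cytometry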
quantity.name: geometric mean MFI fold change over Jurkat parental

binder: Polypeptide No. 20 (scFv, V domains shown, scFv) VH: QVQLVQSGAEVKKPGASVKVSCKASGYMFTGYYIHWVRQAPGQGLEWMGWINPNSGGTNYAQKFQGRVTMTRDTSTSTVYMELSSLRSEDTAVYYCAKDRFGSGNYGYMDVWGKGTTVTVSS VL: DIQMTQSPSSLSASVGDRVTITCRASQSIDRWLAWYQQKPGKAPKLLIYGASSLQSGVPSRFSGSGSGTDFTLTISSLQPEDFATYYCQQSYSTPWTFGQGTRLEIKR
measured.value: < 2 fold
//
binder: Polypeptide No. 24 (scFv, V domains shown, scFv) VH: QVQLVQSGAEVKKPGSSVKVSCKASGYSFTSYGISWVRQAPGQGLEWLGWISAYNGNTNYGQSLQGRVTITADESTSTAYMELSSLRSEDTAVYYCARARGAGTFFDYWGQGTLVTVSS VL: DIVMTQSPLSLPVTPGEPASISCRSSQSLLHSNGYNYLDWYLQKPGQSPQLLIYDATNLPTGVPDRFSGSGSGTDFTLKISRVEAEDVGVYYCMQALQTPFTFGQGTKLEIKR
measured.value: < 2 fold
